# Tested on: SK-MEL-5 melanoma
# Experiment Description: NCI-60 one-dose screen, 48 h
# Test Context: 10 µM unless noted
The panel holds about 83,000 compounds, 20% with a hit somewhere; the sample as a whole holds those more often. Active and inactive are the calls of the source. Rule for the calls: active = growth percent below 10; inactive = the rest.
Answer with one of the outcomes given here: label 1 = active, label 0 = inactive

What did this assay record as the result for NCCNc1nc2ccccc2c2c(=O)c3cccc(F)c3sc12 ?
label 0

Please state the recorded outcome for this molecule: CCN(CC)Cc1cc(Nc2c3ccc(Cl)cc3nc3ccc(OC)cc23)ccc1O
label 0

Tell me the assay call for COc1ccc(-c2nn(C(=O)c3cc(OC)c(OC)c(OC)c3)c3cc(N)ccc23)cc1 please.
label 1

Dear all, I need the recorded test outcome for COc1nc2ccccc2cc1-c1nc2c(cnn2-c2ccccc2)c(=O)[nH]1 , thank you.
label 0

Fill in: this test's call for CCCCCCN(CCCCCC)c1ccc(/C=C2/SC(=O)NC2=O)c(C)c1 is ___
label 0

Hi, do you know how COc1cc2cc(Oc3ccc(NC(=O)Nc4cccc(C(F)(F)F)c4)cc3)c(C)nc2cc1OCCN1CCOCC1 came out in this test?
label 1

For this molecule, state the assay outcome: COc1ccc(-c2nnc(COc3ccc(Cl)cc3Cl)o2)cc1OC
label 0
